The measured values listed here are drawn from patent US20040229821A1.

assay: Pharmacokinetic test of Drug A in dogs, empty stomach vs after food intake; type: in vivo; conditions: dog, in vivo, solution of Drug A, oral, read-out: Bioavailability after food intake compared with on an empty stomach
quantity.kind: Bioavailability after food intake relative to empty stomach (%)
Number in %, nothing else.

Indicate the recorded Bioavailability after food intake relative to empty stomach value for this compound: N=C(N)c1ccc(CNC(=O)[C@@H]2CCCN2C(=O)[C@H](NCC(=O)O)C(c2ccccc2)c2ccccc2)s1
10
